# test_description: Acute toxicity (LD50) in mice, intravenous
# condition_parameters: mouse, in vivo, read-out: DL50 iv
quantity_name: LD50
Write the numeric value and follow it with the unit.

Answered cases to consult:
{"columns": ["compound", "LD50"],
 "data": [
  ["CCN1CCc2c3n(c4ccccc24)C=CCC31 (stereo not drawn)", "46 mg/kg"],
  ["CCN1CCc2c3n(c4ccccc24)C(O)CCC31 (stereo not drawn)", "21 mg/kg"]
]}

Continue with the next compound.
# LD50 lookup, item CCN1CCc2c3n(c4ccccc24)CCCC31 (stereo not drawn)
14 mg/kg
